# System: plants
# experimental-details: Test D pre-emergence, other plants of Tables D1 and D3
# Assay type: in vivo
# condition-summary: pre-emergence, rate 500, 20 DAA, 100=total damage, 0=no damage
measured-attribute: damage to plant, HORVW

[
  {
    "compound": "CN1CC(c2cc(C(F)(F)F)n(C)n2)C(C(=O)Nc2ccc(F)c(F)c2F)C1=O (racemic)",
    "measurement": 90
  },
  {
    "compound": "CCn1nc([C@H]2CN(C)C(=O)[C@@H]2C(=O)Nc2cccc(F)c2F)c2cc(F)ccc21",
    "measurement": 10
  },
  {
    "compound": "CN1CC(c2cc(C(F)(F)F)n(C)n2)C(C(=O)Nc2cccc(F)n2)C1=O (racemic)",
    "measurement": 20
  },
  {
    "compound": "COc1c(F)cccc1NC(=O)C1C(=O)N(C)CC1c1cc(C(F)(F)F)n(C)n1 (racemic)",
    "measurement": 40
  },
  {
    "compound": "CCn1nc([C@H]2CN(C)C(=O)[C@@H]2C(=O)Nc2cccc(F)c2F)c2ccc(F)cc21",
    "measurement": 20
  }
]

###

# Tested on: plants
# experimental-details: Test D pre-emergence, other plants of Tables D1 and D3
# Type: in vivo
# condition-summary: pre-emergence, rate 15, 20 DAA, 100=total damage, 0=no damage

[
  {
    "compound": "CCn1nc([C@@H]2CN(C)C(=O)[C@H]2C(=O)Nc2cccc(F)c2F)c2cccc(F)c21",
    "damage to plant, KCHSC": 0
  },
  {
    "compound": "CN1CC(c2cc(C(F)(F)F)n(C)n2)C(C(=O)Nc2ccccc2F)C1=O (racemic)",
    "damage to plant, KCHSC": 0
  },
  {
    "compound": "CN1CC(c2cc(C(F)(F)F)n(C)n2)C(C(=O)Nc2ccc(F)c(F)c2F)C1=O (racemic)",
    "damage to plant, KCHSC": 0
  },
  {
    "compound": "CN1CC(c2cc(C(F)(F)F)n(C)n2)C(C(=O)Nc2cccc(F)c2C(F)(F)F)C1=O (racemic)",
    "damage to plant, KCHSC": 0
  },
  {
    "compound": "CN1CC(c2cc(C(F)(F)F)n(C)n2)C(C(=O)Nc2ccc(F)cc2F)C1=O (racemic)",
    "damage to plant, KCHSC": 0
  }
]

###

# Tested on: velvetleaf (Abutilon theophrasti, ABUTH)
# experimental-details: Test A pre-emergence, velvetleaf
# Type: in vivo
# condition-summary: Pre-Emergence at 250 g/ha; after 13 d
measured-attribute: damage to plant (100=total damage; 0=no damage) ABUTH

[
  {
    "molecule": "CN1CC(c2cc(C(F)(F)F)n(C)n2)C(C(=O)Nc2cccc(F)n2)C1=O (racemic)",
    "target-or-test-system": "velvetleaf (Abutilon theophrasti, ABUTH)",
    "measurement": 0
  },
  {
    "molecule": "CN1CC(c2cc(C(F)(F)F)n(C)n2)C(C(=O)Nc2cccc(F)c2OC(F)(F)F)C1=O (racemic)",
    "target-or-test-system": "velvetleaf (Abutilon theophrasti, ABUTH)",
    "measurement": 0
  },
  {
    "molecule": "CCc1ccccc1NC(=O)C1C(=O)N(C)CC1c1cc(C(F)(F)F)n(C)n1 (racemic)",
    "target-or-test-system": "velvetleaf (Abutilon theophrasti, ABUTH)",
    "measurement": 0
  },
  {
    "molecule": "CN1CC(c2cc(C(F)(F)F)n(C)n2)C(C(=O)Nc2ccc(F)cc2F)C1=O (racemic)",
    "target-or-test-system": "velvetleaf (Abutilon theophrasti, ABUTH)",
    "measurement": 70
  },
  {
    "molecule": "CN1CC(c2cc(C(F)(F)F)n(C)n2)C(C(=O)Nc2ccc(F)nc2F)C1=O (racemic)",
    "target-or-test-system": "velvetleaf (Abutilon theophrasti, ABUTH)",
    "measurement": 0
  }
]
